System: PPARg:RXRa 30nM:10nM, anti-RXR (NR concentration 30 nM, RXRa partner concentration 10 nM)
test_details: PBM binding z-score (relative to random genomic background probes); higher = stronger binding; sequences stand for … in GC…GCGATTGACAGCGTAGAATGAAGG
# Lookup of reported PBM binding z-score keyed by entry

>  <sequence_data>
CTCGAAAGGTCGAGCTCAGGTGAGTATACCAAAC

>  <PBM binding z-score>
1.14

$$$$
>  <sequence_data>
GATACACGGTCAAGGCCAGAGTACGCGTATTGAT

>  <PBM binding z-score>
-0.0944

$$$$
>  <sequence_data>
CCTGCTAGGTCAATGGTCAGCTCAAGCAGCTCGC

>  <PBM binding z-score>
2.8

$$$$
>  <sequence_data>
CGAACTAGGTCAAACGACAGTGAAAGGCGACGTA

>  <PBM binding z-score>
5.2

$$$$
>  <sequence_data>
CTATGTAGGTTAAGAGGGTCATTCAGTTTGAAAG

>  <PBM binding z-score>
2.95

$$$$
>  <sequence_data>
TCGAGTAGGTTACGTGGGCATTCAGGGATGAAGA

>  <PBM binding z-score>
1.14

$$$$
>  <sequence_data>
CAAACTAGGTCACAGAGGTTAAAGTCCGTGCGTA

>  <PBM binding z-score>
5.91

$$$$
>  <sequence_data>
CCGAGTAGGTTACGAGGGGGCATGCAGTGCGAAT

>  <PBM binding z-score>
0.783

$$$$
>  <sequence_data>
CGAACTAGTTCAAGGACAGTGAATCTCCGCACGC

>  <PBM binding z-score>
-0.735

$$$$
>  <sequence_data>
CTCGAAAGGTCGTCCTCAGGTGAGTATACCAAAC

>  <PBM binding z-score>
0.492

$$$$
>  <sequence_data>
ATCGAAAGGTCGAAAGTGAGTATACCCACCCGAA

>  <PBM binding z-score>
1.05

$$$$
>  <sequence_data>
CGTCCAAGGTAAATGCTAGGTCAGTGAAAGCATT

>  <PBM binding z-score>
-0.486

$$$$
>  <sequence_data>
TCGAGTAGGATACGGGGGCATTCAGGGATGAAGA

>  <PBM binding z-score>
2.22

$$$$
>  <sequence_data>
CCGAGTTGGTTACGAGGGGGCATTCAGTGCGAAT

>  <PBM binding z-score>
-0.706

$$$$
>  <sequence_data>
CCTAGATGGTCAGGAGGTCACACACCGGATATGA

>  <PBM binding z-score>
1.24

$$$$
>  <sequence_data>
CGAACTAGGTCAAAGGACAGTCAAAGGCGACGTA

>  <PBM binding z-score>
8.42

$$$$
>  <sequence_data>
CTATGTAGGTTAAGGGGGTCAGTCAGTTTGAAAG

>  <PBM binding z-score>
5.06

$$$$
>  <sequence_data>
CCGAGTAGGTTACGAGGGGGAATTCAGTGCGAAT

>  <PBM binding z-score>
0.623

$$$$
>  <sequence_data>
TAGCCTAGGTTATGCGGGCCAGTATAGTGTCGGC

>  <PBM binding z-score>
-0.658

$$$$
>  <sequence_data>
ATCGAATGGTCGAAGGTGAGTATACCCACCCGAA

>  <PBM binding z-score>
0.48

$$$$
>  <sequence_data>
AAATGTAGGTTAGGGTCATTCAGAAAGTAGGGAA

>  <PBM binding z-score>
5.16

$$$$
>  <sequence_data>
CTAACTAGGTCACGAAAGGTCAAAGTCGAATGAC

>  <PBM binding z-score>
7.33

$$$$
>  <sequence_data>
CTATGTAGGTTAAGGCGGTCATTCAGTTTGAAAG

>  <PBM binding z-score>
1.38

$$$$
>  <sequence_data>
CGAACTAGGTCACCAGGACAGCGAAGAGGTTGGA

>  <PBM binding z-score>
4.85

$$$$
>  <sequence_data>
CCGAGTAGGTTACGAGGGGGCAATCAGTGCGAAT

>  <PBM binding z-score>
0.613

$$$$
>  <sequence_data>
CCGAGTAGGTTTCGAGGGGGCATTCAGTGCGAAT

>  <PBM binding z-score>
0.107

$$$$
>  <sequence_data>
TAGCCTAGGACATGCGGGCCAGTATAGTGTCGGC

>  <PBM binding z-score>
-0.747

$$$$
>  <sequence_data>
CCTTACGGGTCACGGTTATAGCACGGGTGGTACG

>  <PBM binding z-score>
2.69

$$$$
>  <sequence_data>
CCGAGTAGGTTACGAGGGGGCATTCGGTGCGAAT

>  <PBM binding z-score>
0.729

$$$$
>  <sequence_data>
GGAACGGGGGCAAGTTGATAGCAGAGTTTGATGG

>  <PBM binding z-score>
2.09

$$$$
>  <sequence_data>
CGAACTAGTTCAAAGGACAGTGAAAGGCGACGTA

>  <PBM binding z-score>
1.75

$$$$
>  <sequence_data>
TCGAGTAGGTTACGGCGGCATTCAGGGATGAAGA

>  <PBM binding z-score>
1.18

$$$$
>  <sequence_data>
CGAACTAGGGCAAAGGACAGTGAAAGGCGACGTA

>  <PBM binding z-score>
8.13

$$$$
>  <sequence_data>
CCAGACAGGTGAAAGGTAACTCCGTCTGGTACGC

>  <PBM binding z-score>
3.94

$$$$
>  <sequence_data>
CCGAGTAGGTTACGAGGGGGCATTCAATGCGAAT

>  <PBM binding z-score>
1.21

$$$$
>  <sequence_data>
CGTCCAAGGTCATGGGAGGTCAGTGAAGACAGAT

>  <PBM binding z-score>
2.74

$$$$
>  <sequence_data>
AATACAGGGTCGCTAGGCCAGAGTAGGTACGAAT

>  <PBM binding z-score>
0.105

$$$$
